Listing of recorded protein stability index by entry.
Tested on: Saccharomyces cerevisiae
TEST DESCRIPTION: protein stability index of tFT-peptide fusion in wild type (PSI (0-1 scale)); higher = more stable (slower turnover)
CONDITION DETAILS: genetic background: wild type

{"columns": ["SEQUENCE STRING", "protein stability index"],
 "data": [
  ["FSMRWTFRYWVND", 0.539],
  ["CLVSLQILLFFR", 0.164],
  ["CTSCGVKFRTNN", 0.486],
  ["LKILRQKMNHQH", 0.231],
  ["VRGAVVGWRLVG", 0.141],
  ["PSLAAIFWRVVG", 0.138],
  ["PDKCNHLIKLLN", 0.209],
  ["GLYMVSVGCWFR", 0.176],
  ["KKGKKGQKQKIN", 0.11],
  ["SKHKKGQKQKIN", 0.153],
  ["PSLAASFSRVVG", 0.665],
  ["PRGAVGGWRLVG", 0.169],
  ["RLIQMLPVQFLN", 0.0223],
  ["CLVSLVILLFFR", 0.258],
  ["PDKRNHLIKLLV", 0.118]
]}

* * *

System: Saccharomyces cerevisiae
TEST DESCRIPTION: protein stability index of tFT-peptide fusion (C-terminal peptide) (PSI (0-1 scale)); higher = more stable (slower turnover)
CONDITION DETAILS: genetic background: das1 deletion; temperature: 30 C
Listing of recorded protein stability index by entry.

{"columns": ["SEQUENCE STRING", "TARGET OR SYSTEM", "protein stability index"],
 "data": [
  ["LRYYVSKLINFK [YNL324W C-terminal 12 aa]", "Saccharomyces cerevisiae", 0.704],
  ["YLGAKTGSLIDF [KAR5 C-terminal 12 aa]", "Saccharomyces cerevisiae", 0.702],
  ["MLYTSYQSIFGV [AVT4 C-terminal 12 aa]", "Saccharomyces cerevisiae", 0.707],
  ["QQGGAGADQKTE [EMC10 C-terminal 12 aa]", "Saccharomyces cerevisiae", 0.682],
  ["LSVEEDRDVQMT [APC5 C-terminal 12 aa]", "Saccharomyces cerevisiae", 0.684],
  ["QNEICQYDNTSP [YGR109W-B C-terminal 12 aa]", "Saccharomyces cerevisiae", 0.717],
  ["ESFEKQGKIIYN [MOB2 C-terminal 12 aa]", "Saccharomyces cerevisiae", 0.681],
  ["IWVVDSLGSLVG [YPL142C C-terminal 12 aa]", "Saccharomyces cerevisiae", 0.685],
  ["KRDIVFAASLYL [SKI2 C-terminal 12 aa]", "Saccharomyces cerevisiae", 0.685],
  ["KKQKVVPLPTDI [SMM1 C-terminal 12 aa]", "Saccharomyces cerevisiae", 0.692],
  ["FMKELEMSEESD [RAD4 C-terminal 12 aa]", "Saccharomyces cerevisiae", 0.693],
  ["VMQVQCLFFFIL [YJL156W-A C-terminal 12 aa]", "Saccharomyces cerevisiae", 0.556],
  ["NSARKRVFGTVI [DIP2 C-terminal 12 aa]", "Saccharomyces cerevisiae", 0.7],
  ["LKKKLYTLEQKK [KEL2 C-terminal 12 aa]", "Saccharomyces cerevisiae", 0.694],
  ["VLSNLAVKALQN [PRM3 C-terminal 12 aa]", "Saccharomyces cerevisiae", 0.68],
  ["HQDSAKYTHYYL [YER158C C-terminal 12 aa]", "Saccharomyces cerevisiae", 0.696],
  ["AESDDKSDNYGA [PRP45 C-terminal 12 aa]", "Saccharomyces cerevisiae", 0.689],
  ["GWPLKDGNKKRK [OTO1 C-terminal 12 aa]", "Saccharomyces cerevisiae", 0.682],
  ["VILYRSVMKLSP [YOR073W-A C-terminal 12 aa]", "Saccharomyces cerevisiae", 0.646],
  ["SQIRTPLVMLLM [YOR318C C-terminal 12 aa]", "Saccharomyces cerevisiae", 0.651],
  ["IGELLEGIRMSI [BIT2 C-terminal 12 aa]", "Saccharomyces cerevisiae", 0.694],
  ["SQDDSILSSDPF [NIS1 C-terminal 12 aa]", "Saccharomyces cerevisiae", 0.715],
  ["VLDQITGDLKLY [PTH2 C-terminal 12 aa]", "Saccharomyces cerevisiae", 0.691],
  ["NVLTVVNPDEAD [SLG1 C-terminal 12 aa]", "Saccharomyces cerevisiae", 0.692]
]}

* * *

Test system: Saccharomyces cerevisiae
TEST DESCRIPTION: protein stability index of tFT-peptide fusion (C-terminal peptide) (PSI (0-1 scale)); higher = more stable (slower turnover)
CONDITION DETAILS: genetic background: cdc34-1; temperature: 37 C
EXPERIMENTAL READOUT: protein stability index

{"columns": ["SEQUENCE STRING", "EXPERIMENTAL RESULT"],
 "data": [
  ["IPRSCRIRLAVL", 0.658],
  ["LFFVFCLFFIYF", 0.167],
  ["FYLSFWFLIFFF", 0.227],
  ["VACTCILVALVV", 0.059],
  ["DLQTVGLTRFIV", 0.62],
  ["PPPLCSTCIRCC", 0.197],
  ["RFICMMYLVYLC", 0.142],
  ["LLCLCSLPVFAS", 0.317],
  ["ALSGLARFIVCH", 0.308],
  ["CRGLSWRMITCL", 0.493],
  ["LVYCWFAEYFLV", 0.323],
  ["MFFSWVLSISLT", 0.0242],
  ["KSSIGVWTLLIR", 0.282],
  ["FCICRFLFIFLG", 0.44],
  ["VGVSCLVFFGVV", 0.644],
  ["FGVRRSFVVFVV", 0.383],
  ["SRARIRLPRILS", 0.648],
  ["CLLDVVMVVERG", 0.384],
  ["PPSPAPLPDSLP", 0.662],
  ["LLYYQVFKTRRL", 0.674],
  ["VTMTPSLCFSYS", 0.688],
  ["LPPTPPLSPPPH", 0.644],
  ["DLRRYRTLIPCK", 0.38],
  ["VYKSTHKIYILT", 0.609],
  ["WFLRLVGAVFAL", 0.539],
  ["MLECIIHLTITR", 0.417],
  ["LCLPLYIRILSF", 0.0413],
  ["YLFFVCLHLKAG", 0.233],
  ["FSFVVRMFFRIL", 0.218],
  ["FCFLLLVSFFFV", 0.234],
  ["RFFVRRVRVAVL", 0.786],
  ["KSTLVRILVFHV", 0.559],
  ["CFFVSLFFYIDC", 0.207],
  ["VSCLDLCFVISR", 0.647],
  ["VWICPTLFLLFS", 0.486],
  ["QCSPGLPHAQGL", 0.692],
  ["MIVAIQLVDHPP", 0.459],
  ["VVWCLLARVLLV", 0.332],
  ["RSLRVLLPLYFR", 0.082],
  ["VRMVIFSSVYLT", 0.462],
  ["VRWLVFFLFLFG", 0.501],
  ["FLPSLSLPLLLF", 0.555],
  ["MLSVVSFVSCTC", 0.181],
  ["VCWVYESWKCLA", 0.438],
  ["SILVSIFILAMQ", 0.205],
  ["TLSRTPVSPSAP", 0.686],
  ["VFWISRLYLASY", 0.474],
  ["CCVFFLLCLSLF", 0.419],
  ["GLGLIRTSRLLC", 0.609],
  ["AVCVVVMAVFVG", 0.339],
  ["FGGYLRAGVFLT", 0.643],
  ["FLPLLFFFFFRF", 0.377],
  ["LFFFLFSLLIFF", 0.248],
  ["LSSRGGRCRRLV", 0.714],
  ["FLSLVIVLRWFL", 0.278],
  ["LGGVEDRWRTAT", 0.653],
  ["YPSCPINFICLC", 0.618],
  ["RLFSPPVLATPS", 0.654],
  ["FMVYRIHSSAVM", 0.127]
]}

* * *

Test system: Saccharomyces cerevisiae
TEST DESCRIPTION: protein stability index of tFT-peptide fusion (C-terminal peptide) (PSI (0-1 scale)); higher = more stable (slower turnover)
CONDITION DETAILS: genetic background: cdc53-1; temperature: 37 C
Note to self: class = bucket of protein stability index, per group 1: < 0.5; group 2: ≥ 0.5 and < 0.7; group 3: ≥ 0.7

{"columns": ["SEQUENCE STRING", "CLASS LABEL"],
 "data": [
  ["VRFLLSLCCALL", "group 2"],
  ["FLCIFFFFLISF", "group 1"],
  ["PPPLCSTCIRCC", "group 1"],
  ["LLFTFSLSFFFR", "group 1"],
  ["VSCYYVFLIPFW", "group 2"],
  ["LSASFYFVFFSN", "group 2"],
  ["DFFTSFSLFFFL", "group 3"],
  ["FSMRWTFRYWVN", "group 2"],
  ["FRCRFLLPFYSV", "group 3"],
  ["WDEVVAIVVCPV", "group 1"],
  ["KRMVEKNKKKIN", "group 3"],
  ["GVYRLCLLLLVY", "group 1"],
  ["DLIGSVRRLFCV", "group 3"],
  ["KFRGMTLRNKVC", "group 3"],
  ["LFKFCLGIPLFL", "group 2"],
  ["LCYVLLWLLCRS", "group 2"],
  ["AVCVVVMAVFVG", "group 1"],
  ["GDFYCSSVVLVV", "group 1"],
  ["YVSSFSLVVLLS", "group 1"],
  ["GIGYMFLNVWLV", "group 1"],
  ["RWVFAGVGLFVG", "group 3"]
]}

Where these numbers come from: the supplement of paper PMC10724198
